These data points were gathered from ChEMBL document CHEMBL3507680.

test protocol: Human HepG2 cell viability assay in 384 well format
Format: toxicity, cell-based
Design: dose 125 nL, time 70.5 hour; concentration not given beside the values
condition summary: HepG2 cells, read-out: Inhibition
measured endpoint: cytotoxicity at 70.5 h (%)
Numeric only. Scale: %

INSERT INTO measurements (compound, measured_endpoint, reading) VALUES
  ('O=C(NS(=O)(=O)c1ccc(C2CCCCC2)cc1)C1COCCO1 (stereo not given)', 'cytotoxicity at 70.5 h', -4.85),
  ('O=C(NC1CCC1)[C@@H]1CCO[C@@H]2CCN(C3CCCC3)C[C@@H]21', 'cytotoxicity at 70.5 h', 1.69),
  ('Cc1nc(-c2ccccc2F)sc1C(=O)N1CCC(=O)CC1', 'cytotoxicity at 70.5 h', -8.75),
  ('COCCC1(C(=O)O)CCCN(Cc2cc3c(cc2Cl)OCO3)C1 (stereo not given)', 'cytotoxicity at 70.5 h', -5.22),
  ('N#Cc1ccc(OC[C@]23COC[C@H]2CN(Cc2ccoc2)C3)nc1', 'cytotoxicity at 70.5 h', 0.658),
  ('CCN(CC(F)(F)F)C(=O)C1CCCN(Cc2ccccn2)C1 (stereo not given)', 'cytotoxicity at 70.5 h', -3.97);

*Q* Dear colleague, I am looking for the recorded cytotoxicity at 70.5 h of the following compound: CN1CCN(c2ncnc3c2CCN(Cc2nccn2C)CC3)CC1
*A* 6.69

*Q* Same thing, different compound: Cc1ccc(C(NC(=O)CN2CCc3cncnc3C2)C2CC2)cc1 (stereo not given)
*A* -13.1

*Q* Same thing, different compound: Cc1ccsc1CN1CC[C@H]2OCC[C@@]2(C(=O)N2CCCO2)C1
*A* 22.9

*Q* Same thing, different compound: CCOC(=O)c1s/c(=N\C(=O)COc2cnc(C)cc2O)[nH]c1C
*A* -19

###

Measured cytotoxicity at 70.5 h of individual entries
test protocol: Human HepG2 cell viability assay in 384 well format
Type: toxicity, cell-based
Set-up: dose 125 nL, time 70.5 hour; concentration not given beside the values
condition summary: HepG2 cells, read-out: Inhibition
Numeric only. Scale: %

Here are 3 compounds together with their reported answers.
INSERT INTO results (compound, measured_endpoint, unit_info, reading) VALUES
  ('CCOCC(=O)N1CCOCC2(CCN(c3ncccn3)C2)C1 (stereo not drawn)', 'cytotoxicity at 70.5 h', '%', 2.44),
  ('Cc1nc(N(C)C/C=C/c2ccccc2)c2cnn(C)c2n1', 'cytotoxicity at 70.5 h', '%', -5.71),
  ('CC(C)N1CCC(C(=O)N2CCC(c3ccc(F)cc3)C2)CC1 (stereo not drawn)', 'cytotoxicity at 70.5 h', '%', -20.4);

*Q* Dear colleague, I am looking for the recorded cytotoxicity at 70.5 h of the following compound: Cc1cnn(CC2CCCN2Cc2noc(-c3ccccc3)n2)c1 (stereo not drawn)
*A* -9.63

*Q* Same thing, different compound: CS(=O)(=O)c1ccccc1N[C@@H]1c2ccccc2C[C@@H]1O
*A* 21.1

*Q* Same thing, different compound: Cc1ccc(CNCc2nnc3n2CC(C(F)(F)F)CC3)cc1 (stereo not drawn)
*A* 1.57

*Q* Same thing, different compound: Cc1ccc(NC(C)C(=O)NCc2cccs2)cc1C (stereo not drawn)
*A* 18

*Q* Same thing, different compound: CCc1ncc2c(n1)CN(C(=O)CC(C)NC(C)=O)C2 (stereo not drawn)
*A* -5.94
